test_name: Visible light transmittance of peptide gel (380 to 780 nm)
Assay type: physicochemical
experimental_conditions: gel of 0.5% by weight peptide in 0.1 M Tris-HCl (pH 7.5); optical path length 10 mm
Recorded Visible Light Transmittance (average, 380 to 780 nm) for the following sequences
// note: answer is a bare numeric in %

• KASAKAEAKASAKAEA (Synthetic self-assembling peptide of the invention) [Peptide No. 8, self-assembling peptide of the present invention] = 94
• RASARADARASA (Synthetic self-assembling peptide of the invention) [Peptide No. 7, self-assembling peptide of the present invention] = 97
• RANARADARANARADA (Synthetic self-assembling peptide of the invention) [Peptide No. 2, self-assembling peptide of the present invention] = 77

Task: Fill blank: measured Visible Light Transmittance (average, 380 to 780 nm) of the sequence SAEAKAEASAEAKAEA (Synthetic self-assembling peptide of the invention) [Peptide No. 9, self-assembling peptide of the present invention] is ____.
Output: 93

Task: Recorded Visible Light Transmittance (average, 380 to 780 nm) for RAAARADARAAARADA (Synthetic self-assembling peptide of the invention) [Peptide No. 3, self-assembling peptide of the present invention] , please?
Output: 91

* * *

test_name: Visible light transmittance of peptide gel (380 to 780 nm)
Format: physicochemical
experimental_conditions: gel allowed to stand at room temperature for 2 months
endpoint: visible light transmittance (average) after standing (%/cm)
# number only, unit %/cm dropped from output

Recorded visible light transmittance (average) after standing, per entry:
* RASARADARASARADA (Synthetic self-assembling peptide of the invention) [Peptide No. 1, self-assembling peptide of the present invention] | 88
* RASARADARADARASA (Synthetic self-assembling peptide of the invention) [Peptide No. 4, self-assembling peptide of the present invention] | 87

Task: Request the reported visible light transmittance (average) after standing associated with RASARADARASA (Synthetic self-assembling peptide of the invention) [Peptide No. 7, self-assembling peptide of the present invention]
Output: 93

Task: Which visible light transmittance (average) after standing is reported for this sequence? RASARASARASARADA (Synthetic self-assembling peptide of the invention) [Peptide No. 6, self-assembling peptide of the present invention]
Output: 91

* * *

test_name: Visible light transmittance of peptide gel (380 to 780 nm)
Assay type: physicochemical
experimental_conditions: after 2 months at room temperature versus before storage
endpoint: decreasing ratio of visible light transmittance (%)
Give the value in % but do not write % after it.

• RASARADARASA (Synthetic self-assembling peptide of the invention) [Peptide No. 7, self-assembling peptide of the present invention] = 4.1
• RASARADARASARADA (Synthetic self-assembling peptide of the invention) [Peptide No. 1, self-assembling peptide of the present invention] = 9.3
• RASARASARASARADA (Synthetic self-assembling peptide of the invention) [Peptide No. 6, self-assembling peptide of the present invention] = 6.2

Field: next sequence
Task: Need decreasing ratio of visible light transmittance, item RASARADARADARASA (Synthetic self-assembling peptide of the invention) [Peptide No. 4, self-assembling peptide of the present invention]
Output: 5.4

* * *

Let's look at some sequences and their measured Visible Light Transmittance (average, 380 to 780 nm).
test_name: Visible light transmittance of peptide gel (380 to 780 nm)
Format: physicochemical
experimental_conditions: gel of 0.5% by weight peptide in 0.1 M Tris-HCl (pH 7.5); optical path length 10 mm
Report only the number, with the unit % understood.

Some solved entries appear below for comparison.
* RASARADARADARASA (Synthetic self-assembling peptide of the invention) [Peptide No. 4, self-assembling peptide of the present invention] | 92
* RASARASARASARADA (Synthetic self-assembling peptide of the invention) [Peptide No. 6, self-assembling peptide of the present invention] | 97
* RASARADARASARADA (Synthetic self-assembling peptide of the invention) [Peptide No. 1, self-assembling peptide of the present invention] | 97

Task: What does the record list as Visible Light Transmittance (average, 380 to 780 nm) for RADARASARASARADA (Synthetic self-assembling peptide of the invention) [Peptide No. 5, self-assembling peptide of the present invention] ?
Output: 78

* * *

test_name: Gel formation, test tube placed up-side-down
Assay type: physicochemical
Parameters: key: Excellent: those in which the contents did not drop off were evaluated as the gel formation being “excellent”; Poor: those in which the contents dropped off were evaluated as being “poor.”
experimental_conditions: PBS pH 7.4; peptide 0.5% by weight; 37° C. for 24 hours
endpoint: Gel Formation

- RADARADARADARADA [Peptide No. 10, reference compound]: Poor
- RFDFRFDFRFDFRFDF (Synthetic peptide which is not a peptide of the invention) [compound 11, comparative peptide, which is not self-assembling peptide of the present invention; charge at pH 7.0 is 0, reference compound]: Poor
- RASARADARADARASA (Synthetic self-assembling peptide of the invention) [Peptide No. 4, self-assembling peptide of the present invention]: Excellent
- RASARADARASARADA (Synthetic self-assembling peptide of the invention) [Peptide No. 1, self-assembling peptide of the present invention]: Excellent
